Origin of the recorded values: PubChem BioAssay (NCI)

- Test system: UACC-257 melanoma
- method.description: NCI-60 one-dose screen, 48 h (100 = growth as untreated, 0 = no growth, -100 = all killed)
- measurement.conditions: 10 µM unless noted
Compounds without any hit were thinned out: in the full panel of roughly 83,000, 20% have a hit. Calls of active or inactive are those of the source. How the source made its calls: active means growth percent below 10; inactive means the rest.
property.label: growth

Here is how some molecules turned out for growth.
{"columns": ["structure.smiles", "growth"],
 "data": [
  ["CCOC(=O)c1c(C)c2c(n1C)CSc1cc(C(=O)c3ccccc3)c(=O)[nH]c1-2", "120% [100 µM] (inactive)"],
  ["O=C1Nc2ccccc2/C1=C\\c1nc(-c2ccccc2F)n2ccccc12", "45.7% (inactive)"],
  ["CO[C@]12C=C/C(=C(/C(=O)OCc3cccnc3)C(=O)CCCCCCCC[C@@]3(OC)C=C/C(=C(/C(=O)OCc4cccnc4)C(=O)CCCCCCCC1)O3)O2", "33.6% (inactive)"]
]}

Now for a further molecule.
Ask | Can you share its growth? I mean this molecule: C/C(=N\NC(=O)c1ccccc1O)c1cccc(/C(C)=N/NC(=O)c2ccccc2O)n1
Reply | 87.6% (inactive)
